assay.conditions: buffer; pH 7.4; 200.0 µM
measurement.name: solubility kinetic

[[record]]
compound = "CC1(NC(=O)Cc2csc(-c3ccc(Cl)cc3)n2)CCS(=O)(=O)C1 (stereo not drawn)"
measurement_name = "solubility kinetic"
assay_result = "> 57.7 µg/mL"

[[record]]
compound = "O=C(O)c1cccc(S(=O)(=O)Nc2ccc(Oc3ccccc3)cc2)c1"
measurement_name = "solubility kinetic"
assay_result = "> 55.4 µg/mL"

[[record]]
compound = "CCOP(=O)(CN(CC)C(=O)c1ccccc1Br)OCC"
measurement_name = "solubility kinetic"
assay_result = "> 56.7 µg/mL"

[[record]]
compound = "COc1ccc(NC(=O)COc2ccc(/C=N/O)cc2OC)cc1"
measurement_name = "solubility kinetic"
assay_result = "> 49.6 µg/mL"

[[record]]
compound = "O=C(NC(=S)Nc1ccccc1C(=O)O)c1cncc(Br)c1"
measurement_name = "solubility kinetic"
assay_result = "> 57 µg/mL"

[[record]]
compound = "CSc1ccccc1NS(=O)(=O)c1cccc2nonc12"
measurement_name = "solubility kinetic"
assay_result = "> 48.2 µg/mL"

[[record]]
compound = "O=C(c1ccncc1)N1CCN(c2ccc3ccccc3n2)CC1"
measurement_name = "solubility kinetic"
assay_result = "> 47.8 µg/mL"

[[record]]
compound = "Cc1cccnc1NC(=O)CCNC(=O)c1ccc(Br)cc1"
measurement_name = "solubility kinetic"
assay_result = "> 54.3 µg/mL"

[[record]]
compound = "CC(C)Cn1c(N)c(C=O)c(=O)[nH]c1=O"
measurement_name = "solubility kinetic"
assay_result = "> 31.7 µg/mL"

[[record]]
compound = "CN(C)/C=N/c1c(C#N)cnn1C"
measurement_name = "solubility kinetic"
assay_result = "> 26.6 µg/mL"

[[record]]
compound = "CC(=O)Oc1ccccc1-c1nc(/C=C/c2ccccc2)no1"
measurement_name = "solubility kinetic"
assay_result = "< 0.3 µg/mL"

[[record]]
compound = "Cc1cccc(NC(=S)N2CCCCC2c2cccnc2)c1C (stereo not drawn)"
measurement_name = "solubility kinetic"
assay_result = "> 48.8 µg/mL"

[[record]]
compound = "Cc1cc(C)c2nc(NC(=O)c3ccc([N+](=O)[O-])o3)sc2c1"
measurement_name = "solubility kinetic"
assay_result = "< 0.2 µg/mL"

[[record]]
compound = "CC(C)NC(=O)c1ccc(-n2c(=S)[nH]c3ccccc3c2=O)cc1"
measurement_name = "solubility kinetic"
assay_result = "3.9 µg/mL"

[[record]]
compound = "CS(=O)(=O)N1CCC(C(=O)N2CCN(Cc3ccccc3)CC2)CC1"
measurement_name = "solubility kinetic"
assay_result = "> 54.8 µg/mL"

[[record]]
compound = "CCCCn1c(=O)[nH]c2nc3cc(NC(C)=O)ccc3nc2c1=O"
measurement_name = "solubility kinetic"
assay_result = "2.3 µg/mL"

[[record]]
compound = "Cc1cc(C)cc(OCC(=O)O/N=C(\\N)Cc2ccc([N+](=O)[O-])cc2)c1"
measurement_name = "solubility kinetic"
assay_result = "20.4 µg/mL"

[[record]]
compound = "CCC1CCCCN1CC(O)COCc1cccc(OC)c1 (stereo not drawn)"
measurement_name = "solubility kinetic"
assay_result = "31.4 µg/mL"

[[record]]
compound = "O=C(C[n+]1ccc(C(=O)c2ccccc2)cc1)Nc1ccccc1OC(F)F.[Cl-]"
measurement_name = "solubility kinetic"
assay_result = "59.4 µg/mL"

[[record]]
compound = "CNC(=O)CSc1nc2ccccc2c(=O)n1C1CCCCC1"
measurement_name = "solubility kinetic"
assay_result = "> 49.7 µg/mL"

[[record]]
compound = "CC1(C)CC(=O)c2sc(NS(=O)(=O)c3ccccc3)nc2C1"
measurement_name = "solubility kinetic"
assay_result = "48.9 µg/mL"

[[record]]
compound = "CCCc1cnc(N2CCN(C(=O)c3ccccc3)CC2)nc1"
measurement_name = "solubility kinetic"
assay_result = "> 46.6 µg/mL"

[[record]]
compound = "CC(CN1CCCCC1)OC(=O)/C=C/c1ccccc1.Cl (stereo not drawn)"
measurement_name = "solubility kinetic"
assay_result = "> 46.5 µg/mL"

[[record]]
compound = "CC(C)c1ccc(NC2CCCN(C(=O)c3cscn3)C2)cc1 (stereo not drawn)"
measurement_name = "solubility kinetic"
assay_result = "> 49.4 µg/mL"

[[record]]
compound = "O=C(/C=C/c1ccc(Cl)cc1)Nc1ccc(Br)cn1"
measurement_name = "solubility kinetic"
assay_result = "< 0.4 µg/mL"

[[record]]
compound = "Cc1ccc(NC(=O)c2ccc3c(c2)NC(=O)CS3)nc1"
measurement_name = "solubility kinetic"
assay_result = "5.3 µg/mL"

[[record]]
compound = "O=C(NC1CC(=O)c2sccc21)c1cccc(C(F)(F)F)c1 (stereo not drawn)"
measurement_name = "solubility kinetic"
assay_result = "> 48.8 µg/mL"

[[record]]
compound = "Nc1cc(=O)[nH]c(SCCSc2ccc(F)cc2)n1"
measurement_name = "solubility kinetic"
assay_result = "6.2 µg/mL"


Source: PubChem BioAssay AID1996
